tested_on: Jun bZIP K273A;Fos bZIP K148A (human;human, UniProt P05412;P01100 252-315;137-200, K273A|K148A)
Sequence (P05412 252-315 K273A, chain 1 of 2): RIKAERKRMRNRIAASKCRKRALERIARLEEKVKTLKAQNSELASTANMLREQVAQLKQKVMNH
Sequence (P01100 137-200 K148A, chain 2 of 2): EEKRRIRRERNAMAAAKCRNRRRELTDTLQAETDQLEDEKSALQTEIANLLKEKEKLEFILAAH
assay_procedure: ITC

{"binder": "TRE duplex 15-mer (dsDNA) DNA 1: CGCGTGACTCACCCC DNA 2: GGGGTGAGTCACGCG", "Kd [nM]": 760}
